U251 CNS data, read-out GI50

{"columns": ["SAMPLE_SMILES", "SYSTEM_UNDER_TEST", "GI50"],
 "data": [
  ["CC[C@H](C)C(=O)O[C@H]1CCC=C2C=C[C@H](C)[C@H](CC[C@@H]3C[C@@H](O)CC(=O)O3)[C@H]21", "U251 CNS", "1.13 µM"],
  ["Cc1cc(C(=O)CC(Cl)=C(Cl)Cl)c(Cl)cc1Cl", "U251 CNS", "18.6 µM"],
  ["CN(C)C[C@@H]1CCn2cc(c3ccccc32)C2=C(C(=O)NC2=O)c2cn(c3ccccc23)CCO1", "U251 CNS", "1.9 µM"],
  ["Fc1ccc(-c2c(-c3ccncc3)[nH]c3cccnc23)cc1", "U251 CNS", "> 25 µM"],
  ["N#Cc1ccc(C(=O)c2cnn(-c3ccc(F)cc3)c2N)cc1", "U251 CNS", "> 23.1 µM"]
]}

* * *

system: SNB-19 CNS; assay: NCI tumour cell line growth inhibition, 48 h

{"columns": ["COMPOUND", "SYSTEM_UNDER_TEST", "MODIFIER", "TGI, µM"],
 "data": [
  ["CC(Oc1ccc2c(=O)cc(-c3ccccc3)oc2c1)C(=O)O (stereo not drawn)", "SNB-19 CNS", ">", 100],
  ["CN1CCN(C(=O)[C@@]2(C)CC[C@]3(C)CC[C@]4(C)C(=CC[C@@H]5[C@@]6(C)CC[C@H](OC(=O)c7cccnc7)C(C)(C)[C@@H]6CC[C@]54C)[C@@H]3C2)CC1", "SNB-19 CNS", "=", 3.53],
  ["O=C(NCCCN1CCN(CCCNC(=O)c2cc(-c3ccccc3)nc3ccccc23)CC1)c1cc(-c2ccccc2)nc2ccccc12", "SNB-19 CNS", "=", 33],
  ["O=[N+]([O-])c1cc(C(F)(F)F)cc2c1SC1=Nc3ccccc3CN12", "SNB-19 CNS", ">", 100],
  ["COC1/C=C/OC2(C)Oc3c(C)c(O)c4c(O)c(c(/C=N/N(c5ccccc5)c5ccccc5)c(O)c4c3C2=O)NC(=O)C(C)=C/C=C/C(C)C(O)C(C)C(O)C(C)C(OC(C)=O)C1C (stereo not drawn)", "SNB-19 CNS", "=", 12.1],
  ["CC1(C)C2=CCCC(=O)[C@@]2(C)CC[C@@H]1O", "SNB-19 CNS", ">", 100],
  ["CN(CCCCCCCCNc1ccnc2ccccc12)Cc1ccc(-c2ccc(-c3ccc(C#N)cc3)s2)cc1", "SNB-19 CNS", "=", 2.79],
  ["CC(NNC(=S)N1CCCC1)c1cccnn1 (stereo not drawn)", "SNB-19 CNS", ">", 100],
  ["CC(C)NC(=O)OCc1c(COC(=O)NC(C)C)c(-c2cc[n+](COC(=O)Cc3ccccc3)cc2)n2c1CCC2", "SNB-19 CNS", ">", 100],
  ["CC[C@@]1(O)C(=O)OCc2c1cc1n(c2=O)Cc2cc3cccc(N)c3nc2-1", "SNB-19 CNS", "=", 50.3],
  ["c1cc2cc(Cc3ccc4[nH]ccc4c3)ccc2[nH]1", "SNB-19 CNS", "=", 47.5],
  ["NC1C2C=CC(C2)C1C(=O)O (stereo not drawn)", "SNB-19 CNS", ">", 100],
  ["CC(=O)OC1(C)CC(C)C(=O)C(C(O)CC2CC(=O)NC(=O)C2)C1 (stereo not drawn)", "SNB-19 CNS", "=", 0.598],
  ["CCCCCCc1cc2cc(-c3cn4ccccc4n3)c(=O)oc2cc1O", "SNB-19 CNS", "=", 26],
  ["COC(=O)N1C2C(C[C@@]1(C)C(=O)OC)c1ccccc1N2S(=O)(=O)c1ccccc1 (stereo partly drawn)", "SNB-19 CNS", ">", 100],
  ["COc1cccc(C2c3cc4c(cc3OC(NNC(N)=O)C2C)OCO4)c1OC (stereo not drawn)", "SNB-19 CNS", ">", 100],
  ["CCC/C=C/C=C\\C(=O)O[C@@H]1[C@@H](C)[C@]2(O)[C@@H]3C=C(C)C(=O)[C@H]3CC(COC(C)=O)=C[C@H]2[C@@H]2C(C)(C)[C@]12OC(C)=O", "SNB-19 CNS", "=", 114],
  ["CCOC(=O)C1=C(C)C2C3C(=O)OC(=O)C3C1(C)C1C(=O)OC(=O)C21 (stereo not drawn)", "SNB-19 CNS", ">", 100]
]}

* * *

Catalogue of TGI values
system: MDA-MB-231 breast; test: NCI tumour cell line growth inhibition, 48 h

{"columns": ["COMPOUND", "SYSTEM_UNDER_TEST", "TGI"],
 "data": [
  ["O=C1c2c(c3c4ccccc4n(CCCCCCN4CCOCC4)c3c3[nH]c4ccccc4c23)C(=O)N1O", "MDA-MB-231 breast", "7.76 µM"],
  ["CC(NNC(=S)N1CCCC1)c1cccnn1 (stereo unspecified)", "MDA-MB-231 breast", "> 100 µM"],
  ["O=c1[nH]nc(-c2ccccc2)n1-n1cccc1", "MDA-MB-231 breast", "> 100 µM"],
  ["CCCc1cn2c(/C=N/N=C(N)N)c(-c3ccc([N+](=O)[O-])cc3)nc2s1", "MDA-MB-231 breast", "3.51 µM"],
  ["Cc1ccc(C(CCO)CCO)nc1", "MDA-MB-231 breast", "> 100 µM"],
  ["CC(=O)OC1CC2C(=O)CC1(C)C2(C)C (stereo unspecified)", "MDA-MB-231 breast", "> 100 µM"]
]}

* * *

test system: 786-0 renal; experiment: NCI tumour cell line growth inhibition, 48 h
Overview of recorded TGI for various molecules

{"columns": ["MOLECULE", "SYSTEM_UNDER_TEST", "TGI"],
 "data": [
  ["COc1ccc(OC)c(CCc2ccccc2CC(=O)O)c1", "786-0 renal", "> 100 µM"],
  ["O=C(Cn1c2ccc(Br)cc2c2nc3ccccc3nc21)N1CCOCC1", "786-0 renal", "> 100 µM"],
  ["O=C1CS(=O)c2ccccc2N1 (stereo unspecified)", "786-0 renal", "> 100 µM"],
  ["CCCCCCCCCCCCCP(=O)(OC)OC", "786-0 renal", "33.7 µM"],
  ["Cc1cc2nc3c(C#N)c4c(c(Cl)n3c2cc1C)CCC4", "786-0 renal", "29.5 µM"],
  ["COC(=O)N1C2C(C[C@@]1(C)C(=O)OC)c1ccccc1N2S(=O)(=O)c1ccccc1 (stereo partly specified)", "786-0 renal", "> 100 µM"],
  ["CCc1nc(N)nc(N)c1-c1ccc(N(C)Cc2ccccc2)c([N+](=O)[O-])c1", "786-0 renal", "30.3 µM"],
  ["CCOP(=O)(OCC)C(NC(c1ccccc1)c1ccccc1)c1ccsc1 (stereo unspecified)", "786-0 renal", "31.4 µM"],
  ["CCOC(=O)C12CCC(c3c(C)cccc3C)(O1)C(C(=O)OC)=C2C(=O)OC (stereo unspecified)", "786-0 renal", "> 10 µM"],
  ["O=c1oc2c(O)c(O)cc3c(=O)oc4c(O)c(O)cc1c4c23", "786-0 renal", "71.6 µM"],
  ["O=C1NC(NNc2ccccc2)=N/C1=C\\c1ccco1", "786-0 renal", "40.2 µM"]
]}

* * *

system: KM12 colon; experiment: NCI tumour cell line growth inhibition, 48 h

{"columns": ["SAMPLE_SMILES", "TGI"],
 "data": [
  ["Cc1c2c(n3c(nc4ccccc43)c1C#N)NCC2", "> 10 µM"],
  ["CC[C@@]1(O)C(=O)OCc2c1cc1n(c2=O)Cc2cc3cccc(N)c3nc2-1", "> 100 µM"],
  ["Oc1ccccc1CNCc1ccccc1O", "> 100 µM"],
  ["Fc1ccc(-c2c(-c3ccncc3)[nH]c3cccnc23)cc1", "> 25 µM"],
  ["N#CCCN(c1ccc(C=Nc2ccc(C(=O)O)cc2)cc1)S(=O)(=O)c1ccccc1", "> 100 µM"],
  ["O=C(Cn1c2ccc(Br)cc2c2nc3ccccc3nc21)N1CCOCC1", "> 100 µM"]
]}

* * *

tested on: UO-31 renal; assay: NCI tumour cell line growth inhibition, 48 h
Where a SMILES comes first, the peptide text is derived from it. Bridges are numbered along the chain shown (N, C = ends).

{"columns": ["MOLECULE", "MODIFIER", "TGI, µM"],
 "data": [
  ["Cc1ccc(/C=C2\\CCS(=O)(=O)c3ccccc3C2=O)cc1", "=", 25.4],
  ["O=c1oc2c(O)c(O)cc3c(=O)oc4c(O)c(O)cc1c4c23", ">", 100],
  ["CCC(C)C1NC(=O)C(CC(C)C)NC(=O)C(C(C)C)NC(=O)C2CSSCC(NC1=O)C(=O)N2 (stereo not given) (cyclo(CCVLI); disulfide 1-2; configuration not given here)", "=", 5.84],
  ["C[n+]1ccc2/c(=C\\C#N)c3ccccc3n21", ">", 100],
  ["CCCCCCCCCCCCSC1=CC(=O)C=CC1=O", "=", 2.54]
]}
